I'd be grateful if you could share measured pA2 for these entries.
- target_under_test: Adrenergic receptor alpha-2 (Rattus norvegicus, UniProt P22086+P19328+P22909)
- protocol_details: Compound evaluated for antagonist activity to alpha-2 adrenergic receptor in a competitive assay against clonidine in rat vas deferences
- Assay type: functional
Give only the figure.

Name the reported pA2 value associated with the compound COc1cc2nc(NCCCNC(=O)c3ccco3)nc(N)c2cc1OC
5.99

Name the reported pA2 value associated with the compound COc1cc2nc(NCCCCCNC(=O)c3ccco3)nc(N)c2cc1OC
5.01

Name the reported pA2 value associated with the compound COc1cc2nc(NCCCCNC(=O)c3ccco3)nc(N)c2cc1OC
6.03

Name the reported pA2 value associated with the compound COc1cc2nc(NCCCCCCNC(=O)c3ccco3)nc(N)c2cc1OC
4.51

---

- target_under_test: Adrenergic receptor alpha-2 (Rattus norvegicus, UniProt P22086+P19328+P22909)
- protocol_details: Antagonist activity for Alpha-2 adrenergic receptor against clonidine in rat vas deferences
- Assay type: functional
Use 6 as the dividing line for pA2, with the line itself on the 1 side and lower values as 0.

Textbook exercise: given the entry COc1cc2nc(NCCCCCCCCNC(=O)c3ccco3)nc(N)c2cc1OC , state whether its pA2 is greater than or equal to 6.
0

Textbook exercise: given the entry COc1cc2nc(N(C)CCCCCCN(C)C(=O)c3ccco3)nc(N)c2cc1OC , state whether its pA2 is greater than or equal to 6.
1

Textbook exercise: given the entry COc1cc2nc(NCCCCCCN(C)C(=O)c3ccco3)nc(N)c2cc1OC , state whether its pA2 is greater than or equal to 6.
0

Textbook exercise: given the entry COc1cc2nc(NCCNC(=O)c3ccco3)nc(N)c2cc1OC , state whether its pA2 is greater than or equal to 6.
0

Textbook exercise: given the entry COc1cc2nc(N(C)CCN(C)C(=O)c3ccco3)nc(N)c2cc1OC , state whether its pA2 is greater than or equal to 6.
0

Textbook exercise: given the entry COc1cc2nc(N(C)CCCCN(C)C(=O)c3ccco3)nc(N)c2cc1OC , state whether its pA2 is greater than or equal to 6.
1

Textbook exercise: given the entry COc1cc2nc(N(C)CCCCCN(C)C(=O)c3ccco3)nc(N)c2cc1OC , state whether its pA2 is greater than or equal to 6.
1

Textbook exercise: given the entry COc1cc2nc(N(C)CCCN(C)C(=O)c3ccco3)nc(N)c2cc1OC , state whether its pA2 is greater than or equal to 6.
1

Textbook exercise: given the entry COc1cc2nc(N(C)CCCCCCCCN(C)C(=O)c3ccco3)nc(N)c2cc1OC , state whether its pA2 is greater than or equal to 6.
1

Textbook exercise: given the entry COc1cc2nc(N(C)CCCCCCCN(C)C(=O)c3ccco3)nc(N)c2cc1OC , state whether its pA2 is greater than or equal to 6.
1

Textbook exercise: given the entry COc1cc2nc(NCCCCCCCNC(=O)c3ccco3)nc(N)c2cc1OC , state whether its pA2 is greater than or equal to 6.
0

---

- target_under_test: Adrenergic receptor alpha-1 (Rattus norvegicus, UniProt P15823+P23944+P43140)
- protocol_details: Antagonist activity for Alpha-1 adrenergic receptor against norepinephrine in rat vas deferences
- Format: functional
Use 8 as the dividing line for pA2, with the line itself on the condition met side and lower values as condition not met.

Textbook exercise: given the entry COc1cc2nc(N(C)CCCCCCN(C)C(=O)c3ccco3)nc(N)c2cc1OC , state whether its pA2 is greater than or equal to 8.
condition met

Textbook exercise: given the entry COc1cc2nc(N(C)CCN(C)C(=O)c3ccco3)nc(N)c2cc1OC , state whether its pA2 is greater than or equal to 8.
condition not met

Textbook exercise: given the entry COc1cc2nc(N(C)CCCCCCCN(C)C(=O)c3ccco3)nc(N)c2cc1OC , state whether its pA2 is greater than or equal to 8.
condition met

Textbook exercise: given the entry COc1cc2nc(N(C)CCCCCN(C)C(=O)c3ccco3)nc(N)c2cc1OC , state whether its pA2 is greater than or equal to 8.
condition met

Textbook exercise: given the entry COc1cc2nc(NCCCCCCCNC(=O)c3ccco3)nc(N)c2cc1OC , state whether its pA2 is greater than or equal to 8.
condition not met
